# tested system: T1, MHC class I molecule A*0301 (biotin (bound to streptavidin-coated plate))
# T1 construct: iTopia monomer stripped of placeholder peptide and b2M, then reconstituted with test peptide and fresh b2M; also called A3; HLA-A3
# measurement description: iTopia peptide binding assay
Below, each of the binders is paired with its reported binding, % of positive control peptide value.
measured quantity: binding, % of positive control peptide

> print(dat)
                                      binder                 reported
 1  PRLTNLSSN [5T4 9-mer peptide 205 (PRLTNLSSN)]  2 % of positive control
 2  KGIKKWMHN [5T4 9-mer peptide 190 (KGIKKWMHN)]  3 % of positive control
 3  LDNNPWVCD [5T4 9-mer peptide 146 (LDNNPWVCD)]  2 % of positive control
 4  NNSLVSLTY [5T4 9-mer peptide 122 (NNSLVSLTY)]  4 % of positive control
 5  IRVFLDNNP [5T4 9-mer peptide 144 (IRVFLDNNP)]  3 % of positive control
 6  LKETEVVQG [5T4 9-mer peptide 155 (LKETEVVQG)]  4 % of positive control
 7  IFLLVLYLN [5T4 9-mer peptide 185 (IFLLVLYLN)]  0 % of positive control
 8  NGTLAELQG [5T4 9-mer peptide 138 (NGTLAELQG)]  3 % of positive control
 9  PHIRVFLDN [5T4 9-mer peptide 143 (PHIRVFLDN)]  3 % of positive control
10  DPILPPSLQ [5T4 9-mer peptide 173 (DPILPPSLQ)]  4 % of positive control
